Measured values drawn from patent US20260242478A1 for this set.

Catalogue of binders with associated Anti-CD28 Fab signal (phage binding ELISA)
# target.or.system: T1, Anti-CD28 Fab (SEQ ID NOs: 696, 697)
# T1 construct: In the phage ELISA the Fab was biotinylated and captured on neutravidin coated plates
# T1 sequence (VH, as listed by the source, chain 1 of 2): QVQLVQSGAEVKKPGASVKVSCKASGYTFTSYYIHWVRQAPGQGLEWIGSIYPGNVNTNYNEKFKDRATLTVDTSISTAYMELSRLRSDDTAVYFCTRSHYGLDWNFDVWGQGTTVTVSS
# T1 sequence (VL, as listed by the source, chain 2 of 2): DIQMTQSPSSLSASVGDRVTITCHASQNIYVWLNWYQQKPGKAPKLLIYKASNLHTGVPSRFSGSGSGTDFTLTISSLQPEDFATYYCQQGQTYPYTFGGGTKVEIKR
# assay.remarks: phage ELISA; biotinylated anti-CD28 Fab on neutravidin plate, clonal phage supernatant, anti-M13 HRP
Where no end group is shown, it is not given here.
Give the figure only, with no unit attached.

Reference set, count: 6
{"binder": "YCEGHLPSYLAKCL (cysteine pairing not given here; also: displayed on phage by fusion to pIII, linker and pIII sequence not given here) [Phage-1202]", "value.observed": 1.05}
{"binder": "YCEGHSSAYMRKCL (cysteine pairing not given here; also: displayed on phage by fusion to pIII, linker and pIII sequence not given here) [Phage-1207]", "value.observed": 1.04}
{"binder": "YCEGHIPAYMAKCL (cysteine pairing not given here; also: displayed on phage by fusion to pIII, linker and pIII sequence not given here) [Phage-1195]", "value.observed": 1.06}
{"binder": "YCDGHDARYMTKCL (cysteine pairing not given here; also: displayed on phage by fusion to pIII, linker and pIII sequence not given here) [Phage-1205]", "value.observed": 1.04}
{"binder": "YCEGHDVQYMQKCL (cysteine pairing not given here; also: displayed on phage by fusion to pIII, linker and pIII sequence not given here) [Phage-1198]", "value.observed": 1.06}
{"binder": "YCEGHAPQYMSKCL (cysteine pairing not given here; also: displayed on phage by fusion to pIII, linker and pIII sequence not given here) [Phage-1204]", "value.observed": 1.04}

Now for a further binder.
Ask: Form field: reported Anti-CD28 Fab signal (phage binding ELISA) of YCDGHAPEFIRKCL (cysteine pairing not given here; also: displayed on phage by fusion to pIII, linker and pIII sequence not given here) [Phage-1203]
Result: 1.05
